These entries and their values trace back to ChEMBL document CHEMBL1671817.

assay: Therapeutic index, ratio of EC50 for human RBC hemolytic activity to MIC for methicillin-resistant Staphylococcus epidermidis ATCC 27626; conditions: human red blood cells (RBC), read-out: TI
// reported selectivity ratio for each item listed
Just the number, please.

1) CN1CCN(C(=O)C(CN)(Cc2ccc(C(C)(C)C)cc2)Cc2ccc(C(C)(C)C)cc2)CC1.O=C(O)C(F)(F)F.O=C(O)C(F)(F)F 48

Query (compound): "NCCNC(=O)C(CN)(Cc1ccc(C(F)(F)F)cc1)Cc1ccc(C(F)(F)F)cc1.O=C(O)C(F)(F)F.O=C(O)C(F)(F)F" ; field requested: selectivity ratio 28

Please look up its selectivity ratio: "CN(C)CCN1CCN(C(=O)C(CN)(Cc2ccc3ccccc3c2)Cc2ccc3ccccc3c2)CC1.O=C(O)C(F)(F)F.O=C(O)C(F)(F)F" 29

I am curious: what selectivity ratio value has been reported for "CN(C)CCN1CCN(C(=O)C(CN)(Cc2ccc(C(F)(F)F)cc2)Cc2ccc(C(F)(F)F)cc2)CC1.O=C(O)C(F)(F)F.O=C(O)C(F)(F)F" ? 17
